As shown below, each of these binders has a reported pKd value.
Experimental system: biotinylated hu-β-klotho (UniProt Q86Z14 53-996, biotinylated (sites not given))
Sequence (Q86Z14 53-996): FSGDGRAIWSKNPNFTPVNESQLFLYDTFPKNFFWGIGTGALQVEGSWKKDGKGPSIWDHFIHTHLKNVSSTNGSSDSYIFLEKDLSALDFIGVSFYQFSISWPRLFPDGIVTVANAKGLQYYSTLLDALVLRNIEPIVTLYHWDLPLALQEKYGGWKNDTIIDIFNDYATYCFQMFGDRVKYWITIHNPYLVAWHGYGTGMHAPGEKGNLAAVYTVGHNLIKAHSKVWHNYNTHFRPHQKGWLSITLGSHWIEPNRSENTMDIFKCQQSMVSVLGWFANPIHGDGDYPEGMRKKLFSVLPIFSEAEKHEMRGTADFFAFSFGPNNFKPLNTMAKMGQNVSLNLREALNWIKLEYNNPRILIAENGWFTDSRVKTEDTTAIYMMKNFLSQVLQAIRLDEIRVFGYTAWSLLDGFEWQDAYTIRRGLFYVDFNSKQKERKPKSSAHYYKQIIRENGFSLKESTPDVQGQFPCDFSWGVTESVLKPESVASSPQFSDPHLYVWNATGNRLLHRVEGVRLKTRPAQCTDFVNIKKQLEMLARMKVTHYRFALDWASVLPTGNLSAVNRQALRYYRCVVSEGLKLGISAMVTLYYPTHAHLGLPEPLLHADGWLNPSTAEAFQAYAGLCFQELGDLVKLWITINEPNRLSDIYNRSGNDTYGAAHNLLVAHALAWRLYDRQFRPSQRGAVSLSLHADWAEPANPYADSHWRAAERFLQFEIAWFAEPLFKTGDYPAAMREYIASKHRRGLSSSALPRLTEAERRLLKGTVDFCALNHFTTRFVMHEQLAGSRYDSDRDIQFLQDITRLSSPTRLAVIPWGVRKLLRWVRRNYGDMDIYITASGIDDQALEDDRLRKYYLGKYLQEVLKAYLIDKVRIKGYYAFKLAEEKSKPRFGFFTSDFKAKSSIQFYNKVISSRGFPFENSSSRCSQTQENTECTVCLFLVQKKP
Test summary: Octet BLI
Hey, just a heads up that pKd is the negative log base 10 of the concentration in molar.

Some binders with recorded pKd:
3F4 (antibody, V domains shown) VH: QVQLVESGGGVVQPGRSLRLSCAASGFIFRSYGMHWVRQAPGKGLEWVAVISYDGSNKYYADSVKGRFTISRDNSKNTLYLQMNSLRAEDTAVYYCARDHPVAGTSFDYWGQGTLVTVSS VL: QSVLTQPPSVSAAPGQKVTISCSGSSSNIGNNYVSWYQQLPGTAPKLLIYDNNNRPSGIPDRFSGSKSGTSATLGITGLQTGDEADYYCETWDSSLSAGVFGGGTKLTVLG: 9.55
9D10 (antibody, V domains shown) VH: QVQLVESGGGVVQPGRSLRLSCAASGFTFRSYGMHWVRQAPGKGLEWVAVIWYDGRNEYYADSVKGRFTISRDNSKNTLYLRMNSLRAEDTAVYYCARDHPVAGTSFDYWGQGTLVTVSS VL: QSVLTQPPSVSAAPGQKVTISCSGSSSNIGNNYVSWYQQLPGTAPKLLIYDNNRRPSGIPDRFSGSKSGTSATLGITGLQTGDEADYYCGTWDSSLSAVVFGGGTKLTVLG: 9.53

// next entry
Write down pKd measured for item 10H3 (antibody, V domains shown) VH: QVQLVQSGAEVRKPGASVKVSCKASGYTFTAYYMHWVRQAPGQGLEWMGWINPYSGGTNSAQKFQGRVTMTRDTSISTAYMELSWLRSDDTAVYYCARDATSGWFDFWGQGTLVTVSS VL: DIVMTQTPLSSPVTLGQPASISCRSSQSLVHYDGNTYLSWLQQRPGQPPRLLIYKISNRFSGVPDRFSGSGAGTDFTLKISRVAAEDVGIYYCMQALEFPWTFGQGTKVEIKR 9.25
